target.system: recombinant human IDO1 enzyme (Homo sapiens)
Sequence (P14902 whole entry): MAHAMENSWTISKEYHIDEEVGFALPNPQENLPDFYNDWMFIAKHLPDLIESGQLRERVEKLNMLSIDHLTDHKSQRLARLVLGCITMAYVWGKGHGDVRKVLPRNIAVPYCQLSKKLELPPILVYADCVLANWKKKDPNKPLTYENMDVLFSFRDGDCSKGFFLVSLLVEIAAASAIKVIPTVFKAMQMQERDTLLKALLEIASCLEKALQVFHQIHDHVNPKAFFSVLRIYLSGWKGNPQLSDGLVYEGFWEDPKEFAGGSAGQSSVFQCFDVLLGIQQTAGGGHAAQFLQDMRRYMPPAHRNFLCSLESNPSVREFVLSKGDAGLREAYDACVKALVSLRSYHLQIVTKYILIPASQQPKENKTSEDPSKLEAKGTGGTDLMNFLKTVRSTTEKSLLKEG
procedure.text: In vitro hIDO1 enzyme activity test (NFK Green fluorescence)
condition.info: recombinant human IDO1, L-tryptophan substrate, pH 6.5
Listed here: items and their measured IC50.
endpoint: IC50 (µM)

[[record]]
molecule = "Fc1cc2c(s1)C(CCC1CCCCC1)n1cncc1-2 (single isomer, unassigned) [Example 19]"
units_label = "µM"
censor_symbol = ">"
observed_value = 10

[[record]]
molecule = "O[C@@H](C[C@H]1c2sccc2-c2cncn21)C1CCC(F)(F)CC1 [Example 46]"
units_label = "µM"
censor_symbol = "="
observed_value = 0.0114

[[record]]
molecule = "O[C@@H](C[C@@H]1c2sccc2-c2cncn21)C1CCC(F)(F)CC1 [Example 47]"
units_label = "µM"
censor_symbol = "="
observed_value = 1.68

[[record]]
molecule = "c1cc2c(s1)C(C1CCCCC1)n1cncc1-2 (single isomer, unassigned) [Example 13]"
units_label = "µM"
censor_symbol = ">"
observed_value = 10

[[record]]
molecule = "OC1CCCC(C2c3sccc3-c3cncn32)C1 (single isomer, unassigned) [Example 66]"
units_label = "µM"
censor_symbol = ">"
observed_value = 10

[[record]]
molecule = "c1cc2c(s1)C(CCC1CCCCC1)n1cncc1-2 (single isomer, unassigned) [Example 10]"
units_label = "µM"
censor_symbol = ">"
observed_value = 10

[[record]]
molecule = "OC(CC1c2sccc2-c2cncn21)C1CCCCC1 (single isomer, unassigned) [Example 6]"
units_label = "µM"
censor_symbol = "="
observed_value = 9.67

[[record]]
molecule = "OC(CC1c2cscc2-c2cncn21)C1CCCCC1 (centres unmarked) [Example 12]"
units_label = "µM"
censor_symbol = "="
observed_value = 0.106


Hey, just so you know, these numbers are from patent US10487088B2.
